system: RPMI-8226 leukemia; test: NCI tumour cell line growth inhibition, 48 h
REPORTED PROPERTY: TGI

COMPOUND | RESULT
CC(=O)OC1(C#N)CC2OC1C1C2N1C(=O)c1ccccc1 (centres undefined) | > 100 µM
CN1CN(c2ccccc2)C2(CCNCC2)C1=O | > 100 µM
N#CS/C(C(Cl)=C(Cl)Cl)=C(/Cl)[N+](=O)[O-] | 4.25 µM
C=CCCCCOC1C=CC(OC(C)=O)C(COC(C)=O)O1 (centres undefined) | > 100 µM

[in] Query (compound): C=CCN1CCC(OC(=O)C(O)(/C=C\CC)C2CCCC2)CC1 (centres undefined) ; field requested: TGI
[out] > 100 µM

[in] Query (compound): O=C(O)CC(NC(=O)C(F)(F)F)C(=O)NC1Cc2ccccc2OC1=O (centres undefined) ; field requested: TGI
[out] > 100 µM

[in] Query (compound): O=C(CCc1nnc2s/c(=C\c3ccccc3)c(=O)n12)Nc1cc(Cl)ccc1Cl ; field requested: TGI
[out] > 100 µM

[in] Query (compound): NC(=O)c1cnc2sc3ccccc3n2c1=O ; field requested: TGI
[out] > 100 µM

[in] Query (compound): CCCCCCCCCc1cc(O)c(O)cc1CCCCCCCCC ; field requested: TGI
[out] > 10 µM

###

test system: NCI-H23 lung; test: NCI tumour cell line growth inhibition, 48 h
Item-by-item account of TGI

Reference set, count: 3
COMPOUND | REPORTED PROPERTY | RESULT
CCOP(=O)(CCP(=O)(OCC)OCC)OCC.C[CH2][Sn]([Cl])([Cl])[CH2]C | TGI | 49 µM
COc1cc2c(cc1OCCCCNC(=O)c1cc3ccccc3[nH]1)N=CC1CCCN1C2=O (stereo not drawn) | TGI | > 100 µM
CCOc1ccccc1NC(=O)C(=O)CC(=O)C1=C(C)Nc2ccccc2S1 | TGI | > 100 µM

[in] State its TGI on NCI-H23 lung: COc1cc(/C=C2\C(=O)N(c3cccc(Cl)c3)C(c3ccccc3)S2(=O)=O)cc(OC)c1OC (stereo not drawn)
[out] > 100 µM

[in] State its TGI on NCI-H23 lung: Cc1ccnc(NS(=O)(=O)c2ccc(NC(=O)c3ccc4nc5ccccc5c(Nc5ccc(S(=O)(=O)Nc6nccc(C)n6)cc5)c4c3)cc2)n1
[out] > 100 µM

[in] State its TGI on NCI-H23 lung: O=C(c1cc(=O)c2ccc(O)cc2o1)c1ccc(Cl)cc1Cl
[out] > 73.3 µM

[in] State its TGI on NCI-H23 lung: OC(c1cc(C(O)(C(F)(F)F)C(F)(F)F)ncn1)(C(F)(F)F)C(F)(F)F
[out] > 10 µM

[in] State its TGI on NCI-H23 lung: CSC1=N/C(=C\c2cccs2)C(=O)N1CN1CCOCC1
[out] > 100 µM

###

system: A549 NSCLC; assay: NCI tumour cell line growth inhibition, 48 h
Item-by-item account of TGI

Reference set, count: 5
MOLECULE | REPORTED PROPERTY | RESULT
N=C(N)n1ncc(Cl)c(Cl)c1=O | TGI | 33.6 µM
CC(C)OP(=O)(OC(C)C)C(C(F)(F)F)C(F)(F)F | TGI | > 100 µM
COc1ccc(/C=C/C(=O)c2sc(N)nc2C)cc1 | TGI | > 100 µM
O=C(NCCCN1CCN(CCCNC(=O)c2cnc3ccccc3n2)CC1)c1cnc2ccccc2n1 | TGI | > 100 µM
CC(=O)OC1C=CC2CCN3C(=O)c4cc5c(cc4[C@H]1C23)OCO5 (some centres not stated) | TGI | > 100 µM

Turning now to a further record.
[in] Query (molecule): Cc1ccc(/C=C(\C#N)n2nnc3cc(Cl)c(Cl)cc32)cc1 ; field requested: TGI
[out] > 100 µM

###

system: SNB-19 CNS; experiment: NCI tumour cell line growth inhibition, 48 h
Item-by-item account of TGI

Reference set, count: 8
COMPOUND | REPORTED PROPERTY | RESULT
COC1=C(OC)C(=O)C(/C=C(\C)C(=O)O)=C(C)C1=O | TGI | > 100 µM
CN1CCc2c(sc3nc(Nc4ccccc4)n(N)c(=O)c23)C1 | TGI | > 100 µM
CC(=O)OC1C=CC2CCN3C(=O)c4cc5c(cc4[C@H]1C23)OCO5 (some centres undefined) | TGI | > 100 µM
O=c1[nH]c(=S)[nH]c2c1sc(=S)n2-c1ccccc1 | TGI | > 100 µM
O=C(ON=c1c2ccccc2ccc2ccccc12)c1cc([N+](=O)[O-])cc([N+](=O)[O-])c1 | TGI | > 100 µM
COC(=O)N1CC[C@@H]2CCC=C(c3cccc4c3OCO4)[C@@H]21 | TGI | > 100 µM
CCCCC1Cc2cc(O)ccc2-c2n1c1cc(O)ccc1[n+]2C (centres undefined) (tested in a mixture with another compound) | TGI | > 39.8 µM
COc1ccc2c(=O)c([Se]c3coc4cc(OC)ccc4c3=O)coc2c1 | TGI | > 100 µM

Turning now to a further record.
[in] State its TGI on SNB-19 CNS: CCCCCCN(CCCCCC)CCCNc1nccc2ccccc12
[out] 6.01 µM

###

Entries below carry reported GI50 on ACHN renal.

Reference set, count: 3
COMPOUND | ASSAYED SYSTEM | REPORTED PROPERTY | RESULT
Clc1ccc(-c2nc3c(-c4ccc(Cl)cc4)nc(-c4ccccc4)cn3c2-c2ccc(Cl)cc2)cc1 | ACHN renal | GI50 | > 50 µM
Cc1ccc(-n2c3c(c4c(CN5CCCCC5)c(O)ccc42)CCc2ccccc2C3=O)cc1 | ACHN renal | GI50 | > 100 µM
O=C1NC(=NCc2cccs2)SC1Cc1ccc2ncccc2c1 (centres undefined) | ACHN renal | GI50 | 24.7 µM

Turning now to a further record.
[in] State its GI50 on ACHN renal: C=C1CC[C@@H]2C(C)(C)[C@@H](O)CC[C@@]2(C)[C@@H]1COc1ccc2ccc(=O)oc2c1
[out] 14.3 µM

###

test system: SF-295 CNS; assay: NCI tumour cell line growth inhibition, 48 h
Item-by-item account of TGI

Reference set, count: 5
MOLECULE | REPORTED PROPERTY | RESULT
C=C1C(=O)OC2/C=C(\C)CC/C=C(/C)CC(OC(=O)/C(=C/CO)CO)C12 (stereo unspecified) | TGI | > 100 µM
ON=C1CCCCC(=NO)CCCC1 | TGI | > 100 µM
O=C(c1cc(=O)c2ccc(O)cc2o1)c1ccc(Cl)cc1Cl | TGI | > 65.9 µM
COc1ccc2c(c1)/C(=C(\C(Cl)=C(\Cl)N1CCCCC1)[N+](=O)[O-])N2 | TGI | > 100 µM
Cc1c2ccccc2c(C)c2c3c(ccc12)C(=O)C=CC3=O | TGI | > 31.6 µM

Turning now to a further record.
[in] Query (molecule): CCOC(=O)CC(=O)ON(C)C(=O)Cc1ccccc1 ; field requested: TGI
[out] > 100 µM

###

Item-by-item account of TGI
tested on: NCI-H460 lung; assay: NCI tumour cell line growth inhibition, 48 h

Reference set, count: 3
MOLECULE | ASSAYED SYSTEM | REPORTED PROPERTY | RESULT
O=C(c1cc2ccccc2[nH]1)C(O)(c1cc2ccccc2[nH]1)c1cc2ccccc2[nH]1 | NCI-H460 lung | TGI | > 246 µM
C=C1CC(OC(C)=O)/C=C(/C)CCC(C(C)(C)O)CC1O (centres undefined) | NCI-H460 lung | TGI | > 100 µM
CN(C)c1nc(N(C)C)nc(N(C)CN(C)c2ccccc2)n1 | NCI-H460 lung | TGI | > 100 µM

Turning now to a further record.
[in] State its TGI on NCI-H460 lung: CC(C)(O)[C@@H]1CCC(C)([C@H]2[C@@H](O)CC3(C)C4CC(OC5OC(CO)C(O)C(O)C5O)C5C(C)(C)[C@@H](OC6OCC(O)C(O)C6O)CC[C@@]56C[C@@]46CC[C@]23C)O1 (some centres undefined)
[out] > 100 µM

###

system: RXF 393 renal; test: NCI tumour cell line growth inhibition, 48 h
Item-by-item account of TGI

Reference set, count: 2
COMPOUND | REPORTED PROPERTY | RESULT
CN(C)c1nc(N(C)C)nc(N(C)CN(C)c2ccccc2)n1 | TGI | > 100 µM
CCCS(=O)(=O)O | TGI | > 100 µM

Turning now to a further record.
[in] Query (compound): COC(=O)C(C(=O)C(=O)Nc1cccc(O)c1)c1nc2ccc(Cl)cc2[nH]c1=O (stereo not drawn) ; field requested: TGI
[out] > 100 µM
